Assay: CASP1-PYCARD signaling inhibition in yeast, confirmatory test, counterassay for NLRP3 inhibitor program, one-dose (AID 488784)
Conditions: yeast expressing Caspase-1-ASC, luminescence counter screen; at 10 µM; stronger effect = higher value
In all, about 1,000 compounds went through this assay and about 700 (70%) were called active. So high a share suggests a set chosen from earlier hits. A selection follows.
value.kind: inhibition

Looking up Cc1ccnc(Nc2nc3ccccc3s2)n1 , I found its inhibition recorded as 21.8% (inactive)

###

Assay: CASP1-PYCARD signaling inhibition in yeast, confirmatory test, counterassay for NLRP3 inhibitor program, one-dose (AID 488784)
Conditions: yeast expressing Caspase-1-ASC, luminescence counter screen; at 10 µM; stronger effect = higher value
Hit rate of the full screen: of about 1,000 compounds, about 700 (70%) were called active. So high a share suggests a set chosen from earlier hits. The list is a sample of the results.
Measured inhibition, listed per entry.
Number in %, nothing else.

>>> assay_value("Cc1ccc(OCc2nc(C#N)c(N3CCCC3)o2)cc1")
71.8

// switching to the query molecule
The molecule Oc1c(Cl)cc(Cl)c(Cl)c1Cc1c(O)c(Cl)cc(Cl)c1Cl showed inhibition equal to 99.3
